- ASSAY_NOTES: Stability study in climate chamber (48-72 h, 40° C./75% RH), form assigned by XRPD
- CONDITION_INFO: 48-72 H, at 40° C./75% RH; samples from cooling-evaporative crystallization, Table 7; label = form after recrystallization
ASSAY_ENDPOINT: XRPD Form c: form assigned after the stability studies

Which XRPD Form c: form assigned after the stability studies value belongs to CC(C)[C@H](C(=O)Nc1ccc(C(=O)NO)cc1)c1ccccc1 [Form A4] ?
Form A

Follow-up item: CC(C)[C@H](C(=O)Nc1ccc(C(=O)NO)cc1)c1ccccc1 [Form A8]
Form A

###

- ASSAY_NOTES: Stability study in climate chamber (48-72 h, 40° C./75% RH), form assigned by XRPD
- CONDITION_INFO: 48-72 H, at 40° C./75% RH; samples from anti-solvent addition, Table 3; label = form before stability
ASSAY_ENDPOINT: XRPD Form b: form assigned after the stability studies

Here are 6 molecules together with their reported answers.
Which XRPD Form b: form assigned after the stability studies value belongs to CC(C)C(C(=O)Nc1ccc(C(=O)NO)cc1)c1ccccc1 (stereo not shown) [Form A + Form H1] ?
Form A

Follow-up item: CC(C)[C@H](C(=O)Nc1ccc(C(=O)NO)cc1)c1ccccc1 [Form A_wet]
Form A + Am*

Follow-up item: CC(C)[C@H](C(=O)Nc1ccc(C(=O)NO)cc1)c1ccccc1 [Form A2]
Form A

Follow-up item: CC(C)[C@H](C(=O)Nc1ccc(C(=O)NO)cc1)c1ccccc1 [Form F1]
Form A + Am*

Follow-up item: CC(C)C(C(=O)Nc1ccc(C(=O)NO)cc1)c1ccccc1 (stereo not shown) [Form B1 + Form F5]
Form A

Follow-up item: CC(C)[C@H](C(=O)Nc1ccc(C(=O)NO)cc1)c1ccccc1 [Form A]
Form A

--- query ---
Which XRPD Form b: form assigned after the stability studies value belongs to CC(C)[C@H](C(=O)Nc1ccc(C(=O)NO)cc1)c1ccccc1 [Form G_gel] ?
Form A + Am*

###

- ASSAY_NOTES: Stability study in climate chamber (48-72 h, 40° C./75% RH), form assigned by XRPD
- CONDITION_INFO: 48-72 H, at 40° C./75% RH; samples from slurry conversion, Table 9; label = form after slurry
ASSAY_ENDPOINT: XRPD Form c: form assigned after the stability studies

Here are 4 molecules together with their reported answers.
Which XRPD Form c: form assigned after the stability studies value belongs to CC(C)[C@H](C(=O)Nc1ccc(C(=O)NO)cc1)c1ccccc1 [Form H1] ?
Form A

Follow-up item: CC(C)[C@H](C(=O)Nc1ccc(C(=O)NO)cc1)c1ccccc1 [Form F4_wet]
Form A + Am*

Follow-up item: CC(C)C(C(=O)Nc1ccc(C(=O)NO)cc1)c1ccccc1 (centres unmarked) [Form A3 + Am]
Form A

Follow-up item: CC(C)C(C(=O)Nc1ccc(C(=O)NO)cc1)c1ccccc1 (centres unmarked) [Form A7 + Am]
Form A + Am*

***
Which XRPD Form c: form assigned after the stability studies value belongs to CC(C)[C@H](C(=O)Nc1ccc(C(=O)NO)cc1)c1ccccc1 [Form F1] ?
Form A

###

- ASSAY_NOTES: Storage of samples under ambient conditions, form assigned by XRPD
- Type: physicochemical
- CONDITION_INFO: 1.5-2 weeks ambient; solvent-drop grinding, Table 8; label = form after grinding
ASSAY_ENDPOINT: XRPD Form b: form assigned after storage under ambient conditions

Which XRPD Form b: form assigned after storage under ambient conditions value belongs to CC(C)C(C(=O)Nc1ccc(C(=O)NO)cc1)c1ccccc1 (stereo not drawn) [Form A + Form V] ?
Form A

Follow-up item: CC(C)C(C(=O)Nc1ccc(C(=O)NO)cc1)c1ccccc1 (stereo not drawn) [Form A + Form B1]
Form A_wet**

Follow-up item: CC(C)[C@H](C(=O)Nc1ccc(C(=O)NO)cc1)c1ccccc1 [Form A_wet]
Form A_wet**

Follow-up item: CC(C)C(C(=O)Nc1ccc(C(=O)NO)cc1)c1ccccc1 (stereo not drawn) [Form A + Form F1]
Form A

***
Which XRPD Form b: form assigned after storage under ambient conditions value belongs to CC(C)[C@H](C(=O)Nc1ccc(C(=O)NO)cc1)c1ccccc1 [Form A3] ?
Form A

###

- ASSAY_NOTES: Stability study in climate chamber (48-72 h, 40° C./75% RH), form assigned by XRPD
- CONDITION_INFO: 46-72 H, at 40° C./75% RH; samples from solvent-drop grinding, Table 8; label = form after grinding
ASSAY_ENDPOINT: XRPD Form c: form assigned after the stability studies

Here are 8 molecules together with their reported answers.
Which XRPD Form c: form assigned after the stability studies value belongs to CC(C)C(C(=O)Nc1ccc(C(=O)NO)cc1)c1ccccc1 (stereo not shown) [Form A + Form B1] ?
Form A

Follow-up item: CC(C)[C@H](C(=O)Nc1ccc(C(=O)NO)cc1)c1ccccc1 [Form D1]
Form A

Follow-up item: CC(C)[C@H](C(=O)Nc1ccc(C(=O)NO)cc1)c1ccccc1 [Form H2]
Form A

Follow-up item: CC(C)[C@H](C(=O)Nc1ccc(C(=O)NO)cc1)c1ccccc1 [Form A]
Form A

Follow-up item: CC(C)[C@H](C(=O)Nc1ccc(C(=O)NO)cc1)c1ccccc1 [Form A_min + Form T]
Form A5a

Follow-up item: CC(C)[C@H](C(=O)Nc1ccc(C(=O)NO)cc1)c1ccccc1 [Form A3]
Form A

Follow-up item: CC(C)[C@H](C(=O)Nc1ccc(C(=O)NO)cc1)c1ccccc1 [Form A_wet]
Form A

Follow-up item: CC(C)C(C(=O)Nc1ccc(C(=O)NO)cc1)c1ccccc1 (stereo not shown) [Form A + Form F1]
Form A

***
Which XRPD Form c: form assigned after the stability studies value belongs to CC(C)[C@H](C(=O)Nc1ccc(C(=O)NO)cc1)c1ccccc1 [Form A5a] ?
Form A5a

Follow-up item: CC(C)C(C(=O)Nc1ccc(C(=O)NO)cc1)c1ccccc1 (stereo not shown) [Form A + Form V]
Form A

###

- ASSAY_NOTES: Stability study in climate chamber (48-72 h, 40° C./75% RH), form assigned by XRPD
- CONDITION_INFO: 48-72 H, at 40° C./75% RH; samples from cooling-evaporative crystallization, Table 6; label = form after recrystallization
ASSAY_ENDPOINT: XRPD Form c: form assigned after the stability studies

Which XRPD Form c: form assigned after the stability studies value belongs to CC(C)[C@H](C(=O)Nc1ccc(C(=O)NO)cc1)c1ccccc1 [Form Z_wet] ?
Form Z_wet**

Follow-up item: CC(C)C(C(=O)Nc1ccc(C(=O)NO)cc1)c1ccccc1 (stereo not shown) [Form A2 + Am]
Form Z_wet**

Follow-up item: CC(C)[C@H](C(=O)Nc1ccc(C(=O)NO)cc1)c1ccccc1 [Form X_gel]
Form A_wet**

Follow-up item: CC(C)C(C(=O)Nc1ccc(C(=O)NO)cc1)c1ccccc1 (stereo not shown) [Form A + Form B1]
Form A_wet**

Follow-up item: CC(C)[C@H](C(=O)Nc1ccc(C(=O)NO)cc1)c1ccccc1 [Form D1_wet]
Form A_wet**

Follow-up item: CC(C)[C@H](C(=O)Nc1ccc(C(=O)NO)cc1)c1ccccc1 [Form H1]
Form A

Follow-up item: CC(C)[C@H](C(=O)Nc1ccc(C(=O)NO)cc1)c1ccccc1 [Form K_wet]
Form A

***
Which XRPD Form c: form assigned after the stability studies value belongs to CC(C)[C@H](C(=O)Nc1ccc(C(=O)NO)cc1)c1ccccc1 [Wet sample] ?
Form A

###

- ASSAY_NOTES: Stability study in climate chamber (48-72 h, 40° C./75% RH), form assigned by XRPD
- CONDITION_INFO: 48-72 H, at 40° C./75% RH; samples from anti-solvent addition, Table 5; label = form before stability
ASSAY_ENDPOINT: XRPD Form b: form assigned after the stability studies

Which XRPD Form b: form assigned after the stability studies value belongs to CC(C)[C@H](C(=O)Nc1ccc(C(=O)NO)cc1)c1ccccc1 [Form T_wet] ?
Form A

Follow-up item: CC(C)[C@H](C(=O)Nc1ccc(C(=O)NO)cc1)c1ccccc1 [Am_oily]
Form A

Follow-up item: CC(C)[C@H](C(=O)Nc1ccc(C(=O)NO)cc1)c1ccccc1 [Form F1]
Form A
